- Test system: CCRIS mutagenicity, Ames/micronucleus/aberration tests
- procedure summary: CCRIS mutagenicity studies
- experimental context: Test System: AMES SALMONELLA TYPHIMURIUM; Strain/Indicator: TA1537; Metabolic Activation: NONE; Method: STANDARD PLATE
The source made the active and inactive calls. The rule behind the calls is not given here.

item smiles	mutagenic call
O=C(O)CNCP(=O)(O)O	inactive; negative
CN(CCO)C(=O)Nc1ccc(Cl)c(Cl)c1	inactive; negative
C=CCc1ccc(OC)cc1	inactive; negative
OCCNc1ccc(N=Nc2ccc(NCCO)cc2)cc1	inactive; negative
CC(=O)O[C@]1(C(C)=O)CC[C@H]2[C@@H]3C[C@H](C)C4=CC(=O)CC[C@]4(C)[C@H]3CC[C@@]21C	inactive; negative
O=c1c(Cl)c(Cl)cnn1S(=O)(=O)c1ccc([N+](=O)[O-])cc1	inactive; negative

----------
- Tested on: CCRIS mutagenicity, Ames/micronucleus/aberration tests
- procedure summary: CCRIS mutagenicity studies
- experimental context: Test System: AMES SALMONELLA TYPHIMURIUM; Strain/Indicator: TA100; Metabolic Activation: RAT, LIVER, S-9, AROCLOR 1254; Method: STANDARD PLATE
Activity calls are given as the source filed them. The rule behind the calls is not given here.
Classes used: active, inactive

item smiles	cat
NCCCC[C@H](N[C@@H](CCc1ccccc1)C(=O)O)C(=O)N1CCC[C@H]1C(=O)O	inactive
O=c1oc2cc([N+](=O)[O-])ccc2c2ccccc12	active
Oc1ccc2ccc3c4ccccc4ccc3c2c1	active
COc1cc2c(c3ccc4ccccc4c13)CCC2=O	active
C=CC(=O)OCCCCC	inactive
CC(=O)c1ccc[nH]1	inactive
CC1(C)[C@@H](O[C@H]2O[C@H](C(=O)O)[C@@H](O)[C@H](O)[C@H]2O[C@@H]2O[C@H](C(=O)O)[C@@H](O)[C@H](O)[C@H]2O)CC[C@]2(C)[C@H]3C(=O)C=C4[C@@H]5C[C@@](C)(C(=O)O)CC[C@]5(C)CC[C@@]4(C)[C@]3(C)CC[C@@H]12	inactive
Cc1cc(N)c([N+](=O)[O-])cc1N	inactive
COc1cc2c(c3oc(=O)c4c(c13)CCC4=O)[C@@H]1C=CO[C@@H]1O2	active
c1ccc2cc3c(cc2c1)-c1cccc2cccc-3c12	active

----------
- Test system: CCRIS mutagenicity, Ames/micronucleus/aberration tests
- procedure summary: CCRIS mutagenicity studies
- experimental context: Test System: E. COLI; Strain/Indicator: WP2; Metabolic Activation: NONE; Method: STANDARD PLATE
Calls of active or inactive are those of the source. How the calls were made is not given here.
Classes used: active, inactive

molecule	target under test	cat
CCOCC(O)COc1ccc(NC(=O)CC[S+](C)C)cc1 (stereo unspecified)	CCRIS mutagenicity, Ames/micronucleus/aberration tests	inactive
O=C1[C@H]2CC=CC[C@H]2C(=O)N1SC(Cl)(Cl)Cl	CCRIS mutagenicity, Ames/micronucleus/aberration tests	active
CCC(=O)C1c2cccc(O)c2C(=O)c2c(O)cccc21	CCRIS mutagenicity, Ames/micronucleus/aberration tests	inactive
NC(=O)c1cc(N2CC2)c([N+](=O)[O-])cc1[N+](=O)[O-]	CCRIS mutagenicity, Ames/micronucleus/aberration tests	active
NCCCC[C@H](N[C@@H](CCc1ccccc1)C(=O)O)C(=O)N1CCC[C@H]1C(=O)O	CCRIS mutagenicity, Ames/micronucleus/aberration tests	inactive
O=C(O)CCCC[C@@H]1SC[C@@H]2NC(=O)N[C@@H]21	CCRIS mutagenicity, Ames/micronucleus/aberration tests	inactive
